Listed here: items and their measured recombinant barcode read abundance (log10).
# EXPERIMENT: recombinant barcode read abundance after kanamycin selection (control-corrected) (log10(CPM+1)); higher = more efficient recombination; sequences stand for … in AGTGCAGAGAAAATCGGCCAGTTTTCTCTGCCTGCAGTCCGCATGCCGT…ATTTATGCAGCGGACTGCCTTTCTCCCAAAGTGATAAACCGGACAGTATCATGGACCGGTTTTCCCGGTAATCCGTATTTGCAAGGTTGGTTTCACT; site = the 11-nt target
MEASUREMENT TYPE: recombinant barcode read abundance (log10)

| RECORD SEQUENCE | REPORTED RESULT |
| --- | --- |
| GAGCCCAGTTGGGTTCTAACCTGTTGCCTAG [GAGCCCACTAG_LTGcore_GT_RTGcore_CT] (site GAGCCCACTAG) (LTG core: GT, RTG core: CT) | 0.0941 |
| GGTGCCCACTGGGTTCTAACCTGTTGCCGGT [GGTGCCCCTCG_LTGcore_AC_RTGcore_AC] (site GGTGCCCCTCG) (LTG core: AC, RTG core: AC) | 0.066 |
| GAGTCCATCTGGGTTCTAACCTGTTGCGTAG [GAGTCCACTAC_LTGcore_TC_RTGcore_CT] (site GAGTCCACTAC) (LTG core: TC, RTG core: CT) | 0.0202 |
| AGTCTTAAGTGGGTTCTAACCTGTTGCCAAG [AGTCTTACTTG_LTGcore_AG_RTGcore_CT] (site AGTCTTACTTG) (LTG core: AG, RTG core: CT) | 0.102 |
| AGGCGGGTTTGGGTTCTAACCTGTTGCGGAA [AGGCGGGCTCC_LTGcore_TT_RTGcore_TT] (site AGGCGGGCTCC) (LTG core: TT, RTG core: TT) | 0.299 |
| AAACATGATTGGGTTCTAACCTGTTGCCTAT [AAACATGCTAG_LTGcore_AT_RTGcore_AT] (site AAACATGCTAG) (LTG core: AT, RTG core: AT) | 0.0454 |
| GGGCGTGCTTGGGTTCTAACCTGTTGCCTCG [GGGCGTGCTAG_LTGcore_CT_RTGcore_CG] (site GGGCGTGCTAG) (LTG core: CT, RTG core: CG) | 0.166 |
| AAACACACGTGGGTTCTAACCTGTTGCCTAG [AAACACACTAG_LTGcore_CG_RTGcore_CT] (site AAACACACTAG) (LTG core: CG, RTG core: CT) | 0.622 |
| GCGGGACCTTGGGTTCTAACCTGTTGCCTAA [GCGGGACCTAG_LTGcore_CT_RTGcore_TT] (site GCGGGACCTAG) (LTG core: CT, RTG core: TT) | 1.15 |
| GCGGGACGATGGGTTCTAACCTGTTGCCTAG [GCGGGACCTAG_LTGcore_GA_RTGcore_CT] (site GCGGGACCTAG) (LTG core: GA, RTG core: CT) | 0.171 |
| GGCTCCCCTTGGGTTCTAACCTGTTGCGGAA [GGCTCCCCTCC_LTGcore_CT_RTGcore_TT] (site GGCTCCCCTCC) (LTG core: CT, RTG core: TT) | 0.164 |
| GAGTCCTAATGGGTTCTAACCTGTTGCCTTT [GAGTCCTCTAG_LTGcore_AA_RTGcore_AA] (site GAGTCCTCTAG) (LTG core: AA, RTG core: AA) | 0.11 |
| AGGCGGGACTGGGTTCTAACCTGTTGCGGGT [AGGCGGGCTCC_LTGcore_AC_RTGcore_AC] (site AGGCGGGCTCC) (LTG core: AC, RTG core: AC) | 0.011 |
| TAAGAATTGTGGGTTCTAACCTGTTGCCTCA [TAAGAATCTAG_LTGcore_TG_RTGcore_TG] (site TAAGAATCTAG) (LTG core: TG, RTG core: TG) | 0.0917 |
| ATGTCCCTGTGGGTTCTAACCTGTTGCTCCA [ATGTCCCCTGA_LTGcore_TG_RTGcore_TG] (site ATGTCCCCTGA) (LTG core: TG, RTG core: TG) | 0.0547 |
| TAAGAATTCTGGGTTCTAACCTGTTGCCTGA [TAAGAATCTAG_LTGcore_TC_RTGcore_TC] (site TAAGAATCTAG) (LTG core: TC, RTG core: TC) | 0.0111 |
| TCTACCCCTTGGGTTCTAACCTGTTGCTGAT [TCTACCCCTCA_LTGcore_CT_RTGcore_AT] (site TCTACCCCTCA) (LTG core: CT, RTG core: AT) | 0.131 |
| AAACACACCTGGGTTCTAACCTGTTGCCTGG [AAACACACTAG_LTGcore_CC_RTGcore_CC] (site AAACACACTAG) (LTG core: CC, RTG core: CC) | 1.46 |
| TAGAGGGGTTGGGTTCTAACCTGTTGCGGAG [TAGAGGGCTCC_LTGcore_GT_RTGcore_CT] (site TAGAGGGCTCC) (LTG core: GT, RTG core: CT) | 0.85 |
| ACGGGACCTTGGGTTCTAACCTGTTGCAGTT [ACGGGACCTCT_LTGcore_CT_RTGcore_AA] (site ACGGGACCTCT) (LTG core: CT, RTG core: AA) | 0.29 |
| GGCTCCCTCTGGGTTCTAACCTGTTGCGGAG [GGCTCCCCTCC_LTGcore_TC_RTGcore_CT] (site GGCTCCCCTCC) (LTG core: TC, RTG core: CT) | 0.172 |
| TAAGAATCTTGGGTTCTAACCTGTTGCCTGT [TAAGAATCTAG_LTGcore_CT_RTGcore_AC] (site TAAGAATCTAG) (LTG core: CT, RTG core: AC) | 0.0874 |
